Exercise: state measured protein stability index for each of the variants provided.
B1: TRIM63 (parent)
chain: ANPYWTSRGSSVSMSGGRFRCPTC

variants of: B1; test: protein stability index of a GFP-peptide fusion (GPS, HEK-293T) (PSI 1-6); higher = more stable; details: c terminus: a fixed tail appended;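 note: lentivirally expressed fusions sorted by FACS into six bins by GFP to DsRed ratio, PSI derived from sequencing read proportions per bin multiplied by bin number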
Answer with a number only.

// sample ANPYWTSRGSSVSMSGGRDRCPTC [F19D] , its protein stability index was 2.75

// sample ANPEWTSRGSSVSMSGGRFRCPTC [Y4E] , its protein stability index was 2.1

// sample ANPYWHSRGSSVSMSGGRFRCPTC [T6H] , its protein stability index was 2.12

// sample ANPYWTSRGSSVSMSGGRFRCPGC [T23G] , its protein stability index was 3.11

// sample ANPYWTSNGSSVSMSGGRFRCPTC [R8N] , its protein stability index was 1.92

// sample ANPYWTSRGSEVSMSGGRFRCPTC [S11E] , its protein stability index was 1.76

// sample ANPYWTSRGSSVSMSGGRFRCMTC [P22M] , its protein stability index was 1.97

// sample ANPYWTSRGSSVSMSGGRYRCPTC [F19Y] , its protein stability index was 2.04

// sample ANPSWTSRGSSVSMSGGRFRCPTC [Y4S] , its protein stability index was 1.65

// sample ANPYWNSRGSSVSMSGGRFRCPTC [T6N] , its protein stability index was 1.74

// sample ANPYWTQRGSSVSMSGGRFRCPTC [S7Q] , its protein stability index was 2.29

// sample ANPYCTSRGSSVSMSGGRFRCPTC [W5C] , its protein stability index was 1.6

// sample AKPYWTSRGSSVSMSGGRFRCPTC [N2K] , its protein stability index was 1.59

// sample ANPYWTSRGSSVSMSGGRFRCPPC [T23P] , its protein stability index was 2.26

// sample ANPYWTSRGSSVSQSGGRFRCPTC [M14Q] , its protein stability index was 1.41

// sample ANAYWTSRGSSVSMSGGRFRCPTC [P3A] , its protein stability index was 2.08

// sample ANPYWTSRGSSVSPSGGRFRCPTC [M14P] , its protein stability index was 2.64

// sample AMPYWTSRGSSVSMSGGRFRCPTC [N2M] , its protein stability index was 1.6

Data provenance is the supplement of paper PMC10567573.
